# Assay Summary: Phase-Ib study in CF patients, plasma pharmacokinetics (LC-MS/MS)
# Type: in vivo
# Condition Parameters: human, inhaled or intranasal, dose group 2 (160 mg), read-out: mean plasma concentration 24 hours after inhalation
Non-standard residues stand in square brackets, D forms with d. Residues, ends and D or L forms follow the SMILES beside them. Gly(octyl) = CCCCCCCC[C@H](N)C(=O)O
Value Type: level at 24 h (ng/mL)
Give a bare numeral; the unit ng/mL is implied.

Return level at 24 h (reported value) for this compound: CCCCCCCC[C@@H]1NC(=O)[C@@H]2CCCN2C(=O)[C@H]2CCCN2C(=O)[C@H](Cc2ccc(O)cc2)NC(=O)[C@H](CCCCN)NC(=O)[C@H](CCC(N)=O)NC(=O)[C@@H]2CCCN2C(=O)[C@@H]2CCCN2C(=O)[C@H]([C@@H](C)CC)NC(=O)[C@H](CO)NC(=O)[C@H](C)NC(=O)[C@H]([C@@H](C)O)NC(=O)[C@H](CCC(=O)O)NC1=O [active compound] (cyclo([Gly(octyl)]ETASIPPQKY[dP]P))
4.4

meta.source: patent US11235023B2
